Origin of values: ChEMBL document CHEMBL3885881

Species on record: Rattus norvegicus
Test: DrugMatrix - Regimen: Daily Repeat
Format: toxicity, organism-based, Sprague-Dawley
Design: regimen Daily Repeat, gender Male, age 6-8 weeks
Condition summary: in vivo, po, 1500 mg/kg, 120 h, tissue Plasma, route oral GAVAGE, dose level High, time 5 day, vehicle .5 % CMC
Recorded measurements of BLOOD UREA NITROGEN, one per entry
Measurement label: BLOOD UREA NITROGEN

O=C1CCc2cc(OCCCCc3nnnn3C3CCCCC3)ccc2N1 = 12 mg/dL
CCOC(=O)[C@H](CCc1ccccc1)N[C@@H](C)C(=O)N1[C@H](C(=O)O)C[C@@H]2CCC[C@@H]21 = 31.33 mg/dL
COC(=O)c1ccc(O)cc1 = 15.67 mg/dL
NS(=O)(=O)c1cc2c(cc1Cl)NCNS2(=O)=O [HYDROCHLOROTHIAZIDE] = 20 mg/dL

----------
Species: Rattus norvegicus
Test: DrugMatrix - Regimen: Daily Repeat
Type: toxicity, organism-based, Sprague-Dawley
Design: regimen Daily Repeat, gender Male, age 6-8 weeks
Condition summary: in vivo, po, 0 mg/kg, 120 h, tissue Blood, route oral GAVAGE, dose level Control, time 5 day, […]
Measured ABSOLUTE MONOCYTE by item
Measurement label: ABSOLUTE MONOCYTE (CELLS/uL)

COCc1c(C(C)C)nc(C(C)C)c(/C=C/[C@@H](O)C[C@@H](O)CC(=O)O)c1-c1ccc(F)cc1 = 117
Cn1cnc([N+](=O)[O-])c1Sc1ncnc2nc[nH]c12 = 102.67
CCCC[C@@H](CC)COC(=O)c1ccccc1C(=O)OC[C@@H](CC)CCCC [BIS(2-ETHYLHEXYL)PHTHALATE] = 47
CC1=C(/C=C/C(C)=C/C=C/C(C)=C\C(=O)O)C(C)(C)CCC1 = 49.5
c1ccc2[nH]c(-c3cscn3)nc2c1 = 47
CC(C)n1c(/C=C/C(O)CC(O)CC(=O)O)c(-c2ccc(F)cc2)c2ccccc21 (centres undefined) = 72.5
CC(=O)[C@H]1CC[C@H]2[C@@H]3CCC4=CC(=O)CC[C@]4(C)[C@H]3CC[C@]12C = 341.33
CSc1ccc2c(c1)N(CCC1CCCCN1C)c1ccccc1S2 (centres undefined) = 187

----------
Species on record: Rattus norvegicus
Test: DrugMatrix - Regimen: Daily Repeat
Type: toxicity, organism-based, Sprague-Dawley
Set-up: regimen Daily Repeat, gender Male, age 6-8 weeks
Condition summary: in vivo, po, 0 mg/kg, 72 h, tissue Blood, route oral GAVAGE, dose level Control, time 3 day, vehicle .5 % CMC
Measurement label: PLATELET COUNT (x10E3/uL)

COC(=O)c1ccc(O)cc1 [METHYLPARABEN] = 1162.33
CC(C)[C@H](N)C(=O)OCCOCn1cnc2c(=O)[nH]c(N)nc21 [VALACYCLOVIR] = 1342
CC1(C)[C@H]2CC[C@]1(C)C(=O)C2 [(-)-CAMPHOR] = 1239.5
CN1CCC[C@@H]1CCO[C@](C)(c1ccccc1)c1ccc(Cl)cc1 [CLEMASTINE] = 1118.17
Brc1ccccc1 [BROMOBENZENE] = 994.17
O=c1[nH]cc(F)c(=O)[nH]1 [FLUOROURACIL] = 1310.5

----------
This listing pairs compounds with measured ALKALINE PHOSPHATASE.
Species on record: Rattus norvegicus
Test: DrugMatrix - Regimen: Daily Repeat
Type: toxicity, organism-based, Sprague-Dawley
Set-up: regimen Daily Repeat, gender Male, age 6-8 weeks
Condition summary: in vivo, po, 0 mg/kg, 120 h, tissue Plasma, route oral GAVAGE, dose level Control, time 5 day, vehicle .5 % CMC
Measurement label: ALKALINE PHOSPHATASE (u/L)

O=c1cc(-c2ccccc2)oc2c1ccc1ccccc12 = 233
CC(/C=C1\SC(=S)N(CC(=O)O)C1=O)=C\c1ccccc1 = 337
O=c1[nH]cc(F)c(=O)[nH]1 = 351.83
CCc1cccc2c3c([nH]c12)C(CC)(CC(=O)O)OCC3 (stereo not given) = 419
Brc1ccccc1 = 322.17
COC(=O)c1ccc(O)cc1 = 405.67
C[C@]12CCC(=O)C=C1CC[C@@H]1[C@@H]2C(=O)C[C@@]2(C)[C@H]1CC[C@]2(O)C(=O)CO = 419
COc1c(C)c2c(c(O)c1C/C=C(\C)CCC(=O)OCCN1CCOCC1)C(=O)OC2 [MYCOPHENOLATE MOFETIL] = 337
CN1C(C(=O)Nc2ccccn2)=C(O)c2ccccc2S1(=O)=O = 342.5
CC[C@H]1OC(=O)[C@H](C)[C@@H](O[C@H]2C[C@@](C)(OC)[C@@H](O)[C@H](C)O2)[C@H](C)[C@@H](O[C@@H]2O[C@H](C)C[C@H](N(C)C)[C@H]2O)[C@](C)(O)C[C@@H](C)/C(=N\OCOCCOC)[C@H](C)[C@@H](O)[C@]1(C)O = 419

----------
Entries annotated with measured PHOSPHORUS
Species on record: Rattus norvegicus
Test: DrugMatrix - Regimen: Daily Repeat
Format: toxicity, organism-based, Sprague-Dawley
Set-up: regimen Daily Repeat, gender Male, age 6-8 weeks
Condition summary: in vivo, po, 0 mg/kg, 72 h, tissue Plasma, route oral GAVAGE, dose level Control, time 3 day, […]
Measurement label: PHOSPHORUS (mg/dL)

COCc1c(C(C)C)nc(C(C)C)c(/C=C/[C@@H](O)C[C@@H](O)CC(=O)O)c1-c1ccc(F)cc1 = 11.73
c1ccc2[nH]c(-c3cscn3)nc2c1 = 10.33
COc1ccc2c(c1)c(CC(=O)OCC(=O)O)c(C)n2C(=O)c1ccc(Cl)cc1 = 10.77
CC1=C(/C=C/C(C)=C/C=C/C(C)=C\C(=O)O)C(C)(C)CCC1 = 9.27
C=CCN = 10.2
Oc1c(Cl)cc(Cl)cc1Sc1cc(Cl)cc(Cl)c1O = 10.1
CC(=O)[C@H]1CC[C@H]2[C@@H]3CCC4=CC(=O)CC[C@]4(C)[C@H]3CC[C@]12C = 9.52
CSc1ccc2c(c1)N(CCC1CCCCN1C)c1ccccc1S2 (stereo not given) = 11.1
COC1=CC(=O)C[C@@H](C)[C@]12Oc1c(Cl)c(OC)cc(OC)c1C2=O = 11.3
CCCCCCCCCc1ccc(O)cc1 = 11.73
CC(C)n1c(/C=C/C(O)CC(O)CC(=O)O)c(-c2ccc(F)cc2)c2ccccc21 (stereo not given) = 10.1
CN(C)CCCC1(c2ccc(F)cc2)OCc2cc(C#N)ccc21 (stereo not given) = 9.52
CCCC[C@@H](CC)COC(=O)c1ccccc1C(=O)OC[C@@H](CC)CCCC [BIS(2-ETHYLHEXYL)PHTHALATE] = 10.33
Cn1cnc([N+](=O)[O-])c1Sc1ncnc2nc[nH]c12 = 8.77
CC(C)(Oc1ccc(CCNC(=O)c2ccc(Cl)cc2)cc1)C(=O)O [BEZAFIBRATE] = 8.28

----------
Recorded URIC ACID values for a group of compounds are listed next.
Species: Rattus norvegicus
Test: DrugMatrix - Regimen: Daily Repeat
Assay type: toxicity, organism-based, Sprague-Dawley
Design: regimen Daily Repeat, gender Male, age 6-8 weeks
Condition summary: in vivo, iv, 0 mg/kg, 72 h, tissue Plasma, dose level Control, time 3 day, vehicle 100 % SALINE
Measurement label: URIC ACID (mg/dL)

CC[C@@]1(O)C(=O)OCc2c1cc1n(c2=O)Cc2cc3ccccc3nc2-1 [CAMPTOTHECIN] = 1.55
CC1(C)S[C@@H]2[C@H](NC(=O)[C@H](NC(=O)N3CCNC3=O)c3ccccc3)C(=O)N2[C@H]1C(=O)O [AZLOCILLIN] = 1.63
NCC[C@H](O)C(=O)N[C@@H]1C[C@H](N)[C@@H](O[C@H]2O[C@H](CN)[C@@H](O)[C@H](O)[C@H]2O)[C@H](O)[C@H]1O[C@H]1O[C@H](CO)[C@@H](O)[C@H](N)[C@H]1O [AMIKACIN] = 0.83
CN(N=O)C(=O)N[C@@H](C=O)[C@@H](O)[C@H](O)[C@H](O)CO [STREPTOZOCIN] = 1.23

----------
Species on record: Rattus norvegicus
Test: DrugMatrix - Regimen: Daily Repeat
Format: toxicity, organism-based, Sprague-Dawley
Design: regimen Daily Repeat, gender Male, age 6-8 weeks
Condition summary: in vivo, po, 0 mg/kg, 120 h, tissue Blood, route oral GAVAGE, dose level Control, time 5 day, vehicle .5 % CMC
Measurement label: MEAN CORPUSCULAR HEMOGLOBIN CONCENTRATION

CC1(C)[C@H]2CC[C@]1(C)C(=O)C2 [(-)-CAMPHOR] = 37.47 G/DL
O=c1cc(-c2ccccc2)oc2c1ccc1ccccc12 = 33.94 G/DL
CCOC(=O)OC(C)OC1=C(C(=O)Nc2ccccn2)N(C)S(=O)(=O)c2ccccc21 (stereo not given) = 38.18 G/DL
CN1CCC[C@@H]1CCO[C@](C)(c1ccccc1)c1ccc(Cl)cc1 = 40.35 G/DL
Cc1c(-c2ccccc2)oc2c(C(=O)OCCN3CCCCC3)cccc2c1=O [FLAVOXATE] = 40.2 G/DL
COc1c(C)c2c(c(O)c1C/C=C(\C)CCC(=O)OCCN1CCOCC1)C(=O)OC2 [MYCOPHENOLATE MOFETIL] = 40.35 G/DL
CC(/C=C1\SC(=S)N(CC(=O)O)C1=O)=C\c1ccccc1 = 40.35 G/DL
NCC(=O)O = 39.97 G/DL
CC(C)[C@H](N)C(=O)OCCOCn1cnc2c(=O)[nH]c(N)nc21 = 38.9 G/DL
O=c1[nH]cc(F)c(=O)[nH]1 = 37.82 G/DL
